B1: TRAF3IP2 (parent)
chain: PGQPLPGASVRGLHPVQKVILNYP

Variants of: B1
assay name: protein stability index of a GFP-peptide fusion (GPS, HEK-293T) (PSI 1-6); higher = more stable;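 further: lentivirally expressed fusions sorted by FACS into six bins by GFP to DsRed ratio, PSI derived from sequencing read proportions per bin multiplied by bin number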
settings: c terminus: a fixed tail appended
I'd be grateful if you could share measured protein stability index for these entries.
One number for each entry.

Here is how some variants turned out for protein stability index.
>>> obs_value("P6D")
3.37
>>> obs_value("V10H")
2.79
>>> obs_value("Q17V")
1.35

Give protein stability index for all variants that follow.
1. K18S
2. V19W
3. N22H
4. L21Q
5. G2F
6. G12S

[3.27, 3.38, 2.49, 3.79, 2.92, 3.39]

Values from the supplement of paper PMC10567573
